Test system: CAL-12T
Assay: relative viability (nuclei count vs DMSO), 5 days (fraction); higher = more cells survive
Details: first compound 0.03162 µM
MEASUREMENT_KIND: relative viability

Please state recorded relative viability (tested on CAL-12T) of CC(C)Oc1cc(Nc2nc(N[C@@H](C)c3ccc(F)cn3)ncc2Cl)n[nH]1 [AZ23] + N=C(N)NC(=N)NCCc1ccccc1 [Phenformin] (partner 250 µM)
0.591

----------
Test system: NCI-H441
Experiment: relative viability (nuclei count vs DMSO), 5 days (fraction); higher = more cells survive
Conditions: first compound 1.265 µM
MEASUREMENT_KIND: relative viability
Write the number on its own, no unit after it.

COMPOUND	relative viability
COc1cc(N2CCC(C(N)=O)CC2)ccc1Nc1nc(N)c(Cl)c(Nc2ccccc2S(=O)(=O)C(C)C)n1 [HG-5-88-01] + N=C(N)NC(=N)NCCc1ccccc1 [Phenformin] (partner 250 µM)	0.589

From here, focus on the item given below.
Form field: relative viability recorded for COc1cc(N2CCC(C(N)=O)CC2)ccc1Nc1nc(N)c(Cl)c(Nc2ccccc2S(=O)(=O)C(C)C)n1 [HG-5-88-01] + Cc1nc(NC(=O)N2CCC[C@H]2C(N)=O)sc1-c1ccnc(C(C)(C)C(F)(F)F)c1 [Alpelisib] (partner 2 µM) with NCI-H441 (enter value)
0.84

----------
Test system: NCI-H1944
Assay: relative viability (nuclei count vs DMSO), 5 days (fraction); higher = more cells survive
Conditions: first compound 0.3162 µM
Entries annotated with measured relative viability
Give your answer as a number; write no unit.

COMPOUND	QUANTITATIVE_RESULT
CC(C)Oc1cc(Nc2nc(N[C@@H](C)c3ccc(F)cn3)ncc2Cl)n[nH]1 [AZ23] + CS(=O)(=O)N1CCN(Cc2cc3nc(-c4cccc5[nH]ncc45)nc(N4CCOCC4)c3s2)CC1 [Pictilisib] (partner 1 µM)	0.319

Shifting focus to the compound that follows.
I would be grateful if you could share the reported relative viability for CC(C)Oc1cc(Nc2nc(N[C@@H](C)c3ccc(F)cn3)ncc2Cl)n[nH]1 [AZ23] + Cc1nc(NC(=O)N2CCC[C@H]2C(N)=O)sc1-c1ccnc(C(C)(C)C(F)(F)F)c1 [Alpelisib] (partner 2 µM) .
0.883

----------
Test system: NCI-H1915
Assay: relative viability (nuclei count vs DMSO), 5 days (fraction); higher = more cells survive
Conditions: first compound 4 µM
MEASUREMENT_KIND: relative viability
When you answer, write just the number.

COMPOUND	QUANTITATIVE_RESULT
C[C@@H]1CN(CC(=O)Nc2ccc3c(c2)Cc2cccc(-c4cc(=O)cc(N5CCOCC5)o4)c2S3)C[C@H](C)O1 + CC(C)C[C@H](NC(=O)[C@H](Cc1ccccc1)NC(=O)c1cnccn1)B(O)O [Bortezomib] (partner 0.002 µM)	0.73

May I ask what relative viability has been recorded for C[C@@H]1CN(CC(=O)Nc2ccc3c(c2)Cc2cccc(-c4cc(=O)cc(N5CCOCC5)o4)c2S3)C[C@H](C)O1 + NC(=O)Nc1cc(-c2cccc(F)c2)sc1C(=O)N[C@H]1CCCNC1 [AZD7762] (partner 0.2 µM) ?
0.515

----------
System: NCI-H322M
Experiment: relative viability (nuclei count vs DMSO), 5 days (fraction); higher = more cells survive
Conditions: first compound 4 µM
relative viability listing for selected compounds.

Using the record for C[C@@H]1CN(CC(=O)Nc2ccc3c(c2)Cc2cccc(-c4cc(=O)cc(N5CCOCC5)o4)c2S3)C[C@H](C)O1 + O=C(CCCCCCC(=O)Nc1ccccc1)NO [Vorinostat] (partner 1 µM) , report its relative viability.
0.776

Can you handle COc1cc(N2CCC(C(N)=O)CC2)ccc1Nc1nc(N)c(Cl)c(Nc2ccccc2S(=O)(=O)C(C)C)n1 [HG-5-88-01] + O=C(CCCCCCC(=O)Nc1ccccc1)NO [Vorinostat] (partner 1 µM) next?
0.706

What do you have for C[C@@H]1CN(CC(=O)Nc2ccc3c(c2)Cc2cccc(-c4cc(=O)cc(N5CCOCC5)o4)c2S3)C[C@H](C)O1 + CS(=O)(=O)CCNCc1ccc(-c2ccc3ncnc(Nc4ccc(OCc5cccc(F)c5)c(Cl)c4)c3c2)o1 [Lapatinib] (partner 2 µM) ?
0.535

Then COc1cc(N2CCC(C(N)=O)CC2)ccc1Nc1nc(N)c(Cl)c(Nc2ccccc2S(=O)(=O)C(C)C)n1 [HG-5-88-01] + CS(=O)(=O)N1CCN(Cc2cc3nc(-c4cccc5[nH]ncc45)nc(N4CCOCC4)c3s2)CC1 [Pictilisib] (partner 1 µM) ?
0.449

Another compound to look at: C[C@@H]1CN(CC(=O)Nc2ccc3c(c2)Cc2cccc(-c4cc(=O)cc(N5CCOCC5)o4)c2S3)C[C@H](C)O1 + Nc1ncn([C@H]2C[C@H](O)[C@@H](CO)O2)c(=O)n1 [Decitabine] (partner 2 µM)
0.638

Entry to check: C[C@@H]1CN(CC(=O)Nc2ccc3c(c2)Cc2cccc(-c4cc(=O)cc(N5CCOCC5)o4)c2S3)C[C@H](C)O1 + O=C(c1cc(Cc2n[nH]c(=O)c3ccccc23)ccc1F)N1CCN(C(=O)C2CC2)CC1 [Olaparib] (partner 8 µM)
0.643

Another compound to look at: COc1cc(N2CCC(C(N)=O)CC2)ccc1Nc1nc(N)c(Cl)c(Nc2ccccc2S(=O)(=O)C(C)C)n1 [HG-5-88-01] + COc1cc2c(Oc3ccc(NC(=O)C4(C(=O)Nc5ccc(F)cc5)CC4)cc3F)ccnc2cc1OCCCN1CCOCC1 [Foretinib] (partner 0.25 µM)
0.759

Next compound: C[C@@H]1CN(CC(=O)Nc2ccc3c(c2)Cc2cccc(-c4cc(=O)cc(N5CCOCC5)o4)c2S3)C[C@H](C)O1 + CC1(C)CCC(c2ccc(Cl)cc2)=C(CN2CCN(c3ccc(C(=O)NS(=O)(=O)c4ccc(N[C@H](CCN5CCOCC5)CSc5ccccc5)c(S(=O)(=O)C(F)(F)F)c4)cc3)CC2)C1 [Navitoclax] (partner 0.5 µM)
1.12

What do we get for C[C@@H]1CN(CC(=O)Nc2ccc3c(c2)Cc2cccc(-c4cc(=O)cc(N5CCOCC5)o4)c2S3)C[C@H](C)O1 + CCNC(=O)c1noc(-c2cc(C(C)C)c(O)cc2O)c1-c1ccc(CN2CCOCC2)cc1 [Luminespib] (partner 0.01 µM) ?
0.841

Request: Clc1ccc(Nc2nnc(Cc3ccncc3)c3ccccc23)cc1 [Vatalanib] + CS(=O)(=O)N1CCN(Cc2cc3nc(-c4cccc5[nH]ncc45)nc(N4CCOCC4)c3s2)CC1 [Pictilisib] (partner 1 µM)
0.553

Let us now turn to C[C@@H]1CN(CC(=O)Nc2ccc3c(c2)Cc2cccc(-c4cc(=O)cc(N5CCOCC5)o4)c2S3)C[C@H](C)O1 + CC(=O)Nc1cccc(-n2c(=O)n(C3CC3)c(=O)c3c(Nc4ccc(I)cc4F)n(C)c(=O)c(C)c32)c1 [Trametinib] (partner 0.02 µM)
0.501

What do you get for C[C@@H]1CN(CC(=O)Nc2ccc3c(c2)Cc2cccc(-c4cc(=O)cc(N5CCOCC5)o4)c2S3)C[C@H](C)O1 + COc1cc2c(Oc3ccc(NC(=O)C4(C(=O)Nc5ccc(F)cc5)CC4)cc3F)ccnc2cc1OCCCN1CCOCC1 [Foretinib] (partner 0.25 µM) ?
0.874

Consider next the compound C[C@@H]1CN(CC(=O)Nc2ccc3c(c2)Cc2cccc(-c4cc(=O)cc(N5CCOCC5)o4)c2S3)C[C@H](C)O1 + Cc1nc(Nc2ncc(C(=O)Nc3c(C)cccc3Cl)s2)cc(N2CCN(CCO)CC2)n1 [Dasatinib] (partner 0.075 µM) in the same way.
0.24

Data origin: the supplement of paper PMC10307832
